target: human somatostatin receptor SSTR1 (human); test: competition of [125I]iodo-Tyr11-somatostatin-14 binding to CHO cells stably expressing human SSTR1
Sequence (chain, as listed by the source): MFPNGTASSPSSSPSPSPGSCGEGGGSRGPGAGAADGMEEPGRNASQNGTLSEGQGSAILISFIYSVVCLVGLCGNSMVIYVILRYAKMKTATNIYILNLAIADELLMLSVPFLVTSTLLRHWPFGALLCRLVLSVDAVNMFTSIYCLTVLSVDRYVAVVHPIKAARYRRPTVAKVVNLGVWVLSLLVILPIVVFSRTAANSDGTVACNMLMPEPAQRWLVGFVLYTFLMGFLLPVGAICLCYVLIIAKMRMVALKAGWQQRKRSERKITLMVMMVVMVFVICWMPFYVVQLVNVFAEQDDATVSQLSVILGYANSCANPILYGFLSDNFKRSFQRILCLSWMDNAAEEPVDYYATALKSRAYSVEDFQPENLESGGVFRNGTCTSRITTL
MEASUREMENT LABEL: IC50 (nM)
# unit: nM | format: bare number

Using known records, supply IC50 for SANSNPAMAPRERKAGCKNFFWKTFTSC [somatostatin-28]
4.7
